# Test system: NOMO1
# Assay Protocol: cell viability relative to DMSO control; higher = less cytotoxic
# Condition Details: RPMI 5 mM glucose + 10% dialyzed FBS; 48 h; 46.1 µM
For each entry below, report its cell viability value.
One number for each entry, in %.

Below are 4 compounds. Give each one its cell viability.
1. Cc1nnc(C(=O)NC(C)(C)c2nc(C(=O)NCc3ccc(F)cc3)c(O)c(=O)n2C)o1
2. CC(C)(Sc1cc(C(C)(C)C)c(O)c(C(C)(C)C)c1)Sc1cc(C(C)(C)C)c(O)c(C(C)(C)C)c1
3. c1coc(CNc2ncnc3nc[nH]c23)c1
4. COc1c(N2C[C@@H]3CCCN[C@@H]3C2)c(F)cc2c(=O)c(C(=O)O)cn(C3CC3)c12.Cl.O

Result:
94.5
94
88.5
85.6

---

For each entry below, report its cell viability value.
# Test system: P12-Ichikawa
# Assay Protocol: cell viability relative to DMSO control; higher = less cytotoxic
# Condition Details: RPMI 5 mM glucose + 10% FBS; 48 h; 0.569 µM
Give bare numbers, in %.

| Compound | Result Units | cell viability |
| --- | --- | --- |
| CN1CCN(CC1)C2=CC3=C([NH]C(=N3)C/4=C(\N)C5=C(F)C=CC=C5NC4=O)C=C2 | % | 91.9 |

Below are 3 compounds. Give each one its cell viability.
1. O=c1oc2cc(O)ccc2s1
2. N#Cc1cc(NC(=O)Nc2nnc(-c3ccncc3)s2)ccc1-c1cn[nH]c1
3. COc1cccc(N(C)C(=S)Oc2ccc3c(c2)CCCC3)n1

Result:
117
119
107

Below are 2 compounds. Give each one its cell viability.
1. C[C@H](NC(=O)[C@@H](O)c1cc(F)cc(F)c1)C(=O)N[C@@H]1C(=O)N(C)c2ccccc2-c2ccccc21
2. CC(C)[C@H](O)C(=O)N[C@@H](C)C(=O)N[C@@H]1C(=O)N(C)CCc2ccccc21

Result:
1: 102; 2: 104

Below are 2 compounds. Give each one its cell viability.
1. CC(O)(C[S+](=O)([O-])c1ccc(F)cc1)C(=O)Nc1ccc(C#N)c(C(F)(F)F)c1 (stereo not drawn)
2. Cc1noc(N[S+](=O)([O-])c2ccc(N)cc2)c1C

Result:
1. 93.2
2. 98.1

---

For each entry below, report its cell viability value.
# Test system: P12-Ichikawa
# Assay Protocol: cell viability relative to DMSO control; higher = less cytotoxic
# Condition Details: RPMI 5 mM glucose + 10% dialyzed FBS; 48 h; 0.569 µM
Give bare numbers, in %.

Recorded results for 8 compounds are shown here.
| Compound | cell viability, % |
| --- | --- |
| CCC(=O)O[C@@]1(CC[C@H]2[C@@H]3CCC/4=C/C(=O)CC[C@]4(C)[C@H]3CC[C@]12C)C(=O)CO | 116 |
| Nc1ncnc2nc(-c3ccc(N4CCOCC4)nc3)cc(-c3cccc(Br)c3)c12 | 129 |
| CCOC(=O)c1c(CSc2ccccc2)n(C)c2cc(Br)c(O)c(CN(C)C)c12 | 127 |
| Cc1nc(-c2ccc(-c3ccc(C(=O)N4CCc5cc6c(cc54)C4(CCN(C)CC4)CO6)cc3)c(C)c2)no1 | 120 |
| COC(=O)[C@H](Cc1ccccc1)NC(=O)[C@@H](N)CC(=O)O | 112 |
| CC(C)(Sc1cc(C(C)(C)C)c(O)c(C(C)(C)C)c1)Sc1cc(C(C)(C)C)c(O)c(C(C)(C)C)c1 | 84.7 |
| CCN1\C=C(C(O)=O)/C(=O)C2=C1C(=C(N3CCNC(C)C3)C(=C2)F)F (stereo unspecified) | 117 |
| CCc1nc(N)nc(N)c1-c1ccc(Cl)cc1 | 84.3 |

Below are 3 compounds. Give each one its cell viability.
1. COc1cccc(N(C)C(=S)Oc2ccc3c(c2)CCCC3)n1
2. COc1cc(N2CCC(N3CCN(C)CC3)CC2)ccc1Nc1ncc(Cl)c(Nc2ccccc2[S+](=O)([O-])C(C)C)n1
3. CCn1c(C(=O)N(C2CC2)C2CC2)cc2c3c(ncn3C)c(Nc3cc(C)n(C)n3)nc21

Result:
[101, 161, 98]
